Hey, just so you know, these numbers are from ChEMBL document CHEMBL2146396.

Biological target: UniProtKB Q9BY41
Sequence (Q9BY41 whole entry): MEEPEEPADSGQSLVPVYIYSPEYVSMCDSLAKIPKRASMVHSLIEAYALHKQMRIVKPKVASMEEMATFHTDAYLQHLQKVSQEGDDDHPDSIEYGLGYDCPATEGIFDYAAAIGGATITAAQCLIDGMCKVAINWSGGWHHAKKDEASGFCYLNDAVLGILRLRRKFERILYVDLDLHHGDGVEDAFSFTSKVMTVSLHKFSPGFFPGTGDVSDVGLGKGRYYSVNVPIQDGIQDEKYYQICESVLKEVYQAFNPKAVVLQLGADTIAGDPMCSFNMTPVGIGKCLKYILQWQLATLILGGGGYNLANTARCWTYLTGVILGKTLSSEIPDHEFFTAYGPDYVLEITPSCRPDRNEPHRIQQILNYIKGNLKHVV
Quick list: log10 IC50 per entry.
Answers are given as log10 of IC50 in µM.

What the record says about Cc1ccc(C(=O)N[C@@H](Cc2ccc(OCc3ccccc3)cc2)C(=O)NO)cc1 : log10 IC50 is 1.49

What the record says about CS(=O)(=O)N[C@@H](Cc1ccc(OCCc2ccccc2)cc1)C(=O)O : log10 IC50 is 2.01

What the record says about Cc1ccc(S(=O)(=O)N[C@@H](Cc2ccc(OCc3ccccc3)cc2)C(=O)NO)cc1 : log10 IC50 is 1.63

What the record says about CS(=O)(=O)N[C@@H](Cc1ccc(OCCc2ccccc2)cc1)C(=O)NO : log10 IC50 is 0.98

Moving on to another molecule below.
What the record says about O=C(N[C@@H](Cc1ccc(OCCc2ccccc2)cc1)C(=O)O)c1ccccc1 : log10 IC50 is 2.40
